# Tested on: KM12 colon
# test_method_notes: NCI tumour cell line growth inhibition, 48 h; in the data active = GI50 below about 0.43 µM; inactive = the rest
Result category, one only: y = active, n = inactive

Check out these entries, answers already filled in.
| compound | discrete_label |
| --- | --- |
| COc1ccc(-c2oncc2-c2cc(OC)c3c(c2)OCO3)cc1 | n |
| COc1cc2c3c(n(CCCN4CCOCC4)c(=O)c2cc1OC)-c1cc2c(cc1C3=O)OCO2 | n |
| O=C(Nc1cccc(-n2cc(-c3ccncc3)c(-c3ccc(O)c(Cl)c3)n2)c1)Nc1ccc(Cl)c(C(F)(F)F)c1 | n |
| N=c1c2c(=O)n3c(nc2nc2sc4ccc(Cl)cc4n12)-c1ccccc1Sc1ccccc1-3 | n |
| NNc1nc(-c2ccccn2)nc2sc3c(c12)CCCCCC3 | n |
| COC(C(=O)[C@@H](O)[C@@H](C)O)[C@@H]1Cc2cc3cc(O[C@H]4C[C@@H](O[C@H]5C[C@@H](O)[C@H](O)C(C)O5)[C@H](O)C(C)O4)c(C)c(O)c3c(O)c2C(=O)[C@H]1O[C@H]1C[C@@H](O[C@H]2C[C@@H](O[C@H]3C[C@@H](O)[C@@H](O)C(C)O3)[C@@H](O)C(C)O2)[C@H](O)C(C)O1 (stereo not given in full) | y |

Q: Which result was noted for this compound in the test: `OCCCNC(=S)Nc1ccc(-c2nc3ccccc3s2)cc1`
Ans: n

Q: // same read-out, input: `N=C(N)c1ccc(-c2ccc(-c3ccco3)o2)cc1F`
Ans: n

Q: Next record, please: COc1ccc(C2SC(C)C(=O)N2NC(=O)C(O)c2ccccc2)cc1 (stereo not given)
Ans: n

Q: Moving on to `Cn1cc(-c2nc(-c3cn(C)c4ncccc34)cs2)c2cc(F)ccc21`
Ans: n

Q: Try this compound next: `Clc1cccc(Cc2cn3cc(-c4ccccc4)nc3s2)c1`
Ans: n

Q: Input `COc1ccc2cc(C(=O)/C=C/c3ccccc3OC)ccc2c1`
Ans: n

====

# Test system: HOP-92 NSCLC
# test_method_notes: NCI tumour cell line growth inhibition, 48 h
parameter: TGI

Solved entries (count: 2):
| compound | TGI |
| --- | --- |
| O=[N+]([O-])c1ccc(C2N3CCCCC3[C@@H]3c4[nH]c5ccccc5c4CCN23)cc1 (stereo partly drawn) | > 100 µM |
| CC1OC2OC3C(OCC(O)C3O)OC(=O)[C@]34CCC(C)(C)CC3C3=CCC5[C@@]6(C)C[C@H](O)[C@H](OC7OC(CO)C(O)C(O)C7OC7OC(COC(=O)CC(C)(O)CC(=O)OC1C(O)C2O)C(O)C(O)C7O)[C@@](C)(CO)C6CC[C@@]5(C)[C@]3(C)CC4 (stereo partly drawn) | 2.94 µM |

Give TGI for each of the items listed below.
1. CCC1=C[C@H]2CN(CCc3c([nH]c4ccccc34)[C@@](C(=O)OC)(c3cc4c(cc3OC)N(C)[C@H]3[C@@](O)(C(=O)OC)[C@H](OC(C)=O)[C@]5(CC)[C@@H]6C[C@@H]6CN6CC[C@]43[C@@H]65)C2)C1
2. Cc1ccc(OCCn2cc(Nc3ccccc3)c(=O)[nH]c2=O)cc1
3. CCNCCNc1cc(C2CCCC2)c(C#N)c2nc3ccccc3n12
4. Cc1ccc(C2CC(c3cccc(Nc4ccncc4)c3)=NN2c2ccc(Cl)cc2)cc1 (stereo not drawn)

Ans:
1: 1.76 µM; 2: > 100 µM; 3: 4.4 µM; 4: 2.74 µM

Report TGI for each item below.
1. O=C1C=CC(=O)N1CCCCCCCCCCN1C(=O)C=CC1=O
2. CCOC(=O)c1cc(C2(OC)CCN(Cc3ccccc3)C2=O)c(-c2cc(C)no2)[nH]1 (stereo not drawn)

Ans:
37 µM
> 100 µM

====

# Test system: BT-549 breast
# test_method_notes: NCI tumour cell line growth inhibition, 48 h
Each entry falls in a class defined on TGI; the bands are small value (below 4 µM), mid value (4 µM to below 40 µM), large value (40 µM or more)

Worked examples, 5 compounds total:
| compound | target_system | discrete_label |
| --- | --- | --- |
| CCCC[Si](CCCC)(CCCC)O[C@@H](/C=C/C(=O)OCC)[C@H](Cc1ccccc1)O[Si](CCCC)(CCCC)CCCC | BT-549 breast | large value |
| C(=N/Nc1ccccn1)/c1cccnc1 | BT-549 breast | large value |
| O=C(CN1CCCC1)Nc1ccc2sc3ccccc3c(=O)c2n1 | BT-549 breast | large value |
| CC1(c2nc3cc(Cl)c(Cl)cc3[nH]2)CCC(C(=O)O)C(C)(C)O1 (stereo not given) | BT-549 breast | large value |
| O=C1/C(=C/c2cccc([N+](=O)[O-])c2)N=C(c2ccccc2)N1c1ccc2c(c1)Sc1cc(N3C(=O)/C(=C/c4cccc([N+](=O)[O-])c4)N=C3c3ccccc3)ccc1N2 | BT-549 breast | large value |

Q: Classify this compound: `N=C(N)c1ccc(-c2ccc(-c3ccc(C(=N)N)cc3)o2)cc1`
Ans: large value

Q: Okay, and CCC1CCN=C(Cn2cc(C)c(=O)[nH]c2=O)N1 (stereo not given) ?
Ans: large value

Q: Next: `Cn1cc(-c2nc(-c3cn(C)c4ncccc34)cs2)c2cc(F)ccc21`
Ans: mid value

Q: Next: `Cc1ccccc1Nc1cn(CCOc2ccccc2)c(=O)n(CCOc2ccccc2)c1=O`
Ans: large value

Q: Also, CC1=C(C(=O)Nc2ccc(Cl)c(Cl)c2)C(c2cccc(O)c2)NC(=S)N1 (stereo not given) please.
Ans: mid value

Q: Now give it for `CCC(C)(C)c1ccc(Oc2cccc(C(=O)O)c2)cc1` too.
Ans: large value

Q: Proceed to `NS(=O)(=O)c1ccc(NCc2cnc3ccccc3c2)cc1`
Ans: large value

Q: Query `COc1ccc(N=C2C(=Nc3ccc(OC)cc3)N(c3ccccc3[N+](=O)[O-])C(=S)N2c2ccc(OC)cc2)cc1` next
Ans: large value

Q: Entry `COc1ccc2nc(-c3ccc(O)cc3)cn2c1` please
Ans: large value

Q: And then `Cc1cc(Cl)ccc1Nc1nc(C(F)(F)F)ccc1C(=O)N/N=C/c1c(Cl)cccc1Cl` , what is it?
Ans: small value

Q: Query `CCCCN1C(=O)C[C@H]2[C@@H]3CCc4cc(OCCN5CCCC5)ccc4[C@H]3CC[C@]2(C)C1=O` next
Ans: mid value

Q: Further, for `Cc1ccc(S(=O)(=O)N2C/C(=C\c3cc(F)cc(F)c3)C(=O)/C(=C/c3cc(F)cc(F)c3)C2)cc1` ?
Ans: small value

Q: Consider next the compound Nc1nc(Cl)cc(NCC2(CO)CCC(OCc3ccccc3)C2)n1 (stereo not given) in the same way.
Ans: large value

Q: Moving on to `C(#Cc1ccccc1C#Cc1ccccn1)c1ccc(OCCCCCCOc2ccc(C#Cc3ccccc3C#Cc3ccccn3)cc2)cc1`
Ans: mid value

Q: Repeat for the following compound: O=C(O)C1CCCN1Cc1ccc2c(c1)OCO2 (stereo not given)
Ans: large value

Q: What would you report for `Cc1ccc2nc(Cl)c(/C=N/N3C(=O)/C(=C/Cc4ccco4)N=C3c3ccccc3)cc2c1` ?
Ans: large value

Q: Another compound: COc1ccc2c(c1)N(CCC1CCCCN1C)c1ccccc1S2 (stereo not given)
Ans: mid value

Q: `COc1cc2c(cc1C)NC(=O)/C2=C/c1c(C)nc2sc(C)cn12` , same question.
Ans: large value

Q: Entry to check: `Cc1cc(Cl)ccc1Nc1nc(C(F)(F)F)ccc1C(=O)N/N=C/c1ccc(F)cc1`
Ans: small value

Q: Another compound to check: `CO[C@H]1C[C@H](O[C@H]2CC[C@]3(C=O)[C@H]4CC[C@]5(C)[C@@H](C6=CC(=O)OC6)CC[C@]5(O)[C@@H]4CC[C@]3(O)C2)O[C@H](C)[C@H]1O[C@@H]1O[C@H](CO[C@@H]2O[C@H](CO)[C@@H](O)[C@H](O)[C@H]2O)[C@@H](O)[C@H](O)[C@H]1O`
Ans: small value

====

# System: HCT-116 colon
# test_method_notes: NCI tumour cell line growth inhibition, 48 h; in the data active = GI50 below about 0.43 µM; inactive = the rest
// classify into active, inactive

Consider the worked cases shown below.
| molecule | discrete_label |
| --- | --- |
| N#CC(C#N)=Cc1ccc(-c2ccc(-c3nc4ccccc4s3)cc2)s1 | inactive |
| Cc1ccc(S(=O)(=O)N2C/C(=C\c3cc(F)cc(F)c3)C(=O)/C(=C/c3cc(F)cc(F)c3)C2)cc1 | active |
| Cc1cccc2c(=O)c3c(sc12)c(NCCN)nc1ccccc13 | inactive |
| CC1=C(C(=O)Nc2ccc(Cl)c(Cl)c2)C(c2cccc(O)c2)NC(=S)N1 (stereo not given) | inactive |
| COc1cccc(-c2cc(NCc3ccc4c(c3)OCO4)nc(N)n2)c1 | active |
| COc1ccc(OC)c2c3c(ncc12)-c1cc2c(cc1C3)OCO2 | active |

Q: For `CC(=O)O[C@@H]1CC(=O)O[C@@H]2C[C@@H](CC/C(Cl)=C/C/C=C\1C)O[C@@H]2CO` , which call appears in the assay record?
Ans: inactive

Q: Same again, this time with `COc1ccc2c(c1)CC[C@@H]1[C@@H]2CC[C@]2(C)c3c(cc(C(=O)c4ccccc4)c4sccc34)C[C@@H]12`
Ans: inactive

Q: Now consider `O=C(CN/C=C\C(=O)c1cc(Cl)ccc1Cl)c1ccccc1` and answer again.
Ans: inactive

Q: And the next one, CCN(CC)CCCC(C)Nc1ccnc2cc(Cl)c(SCc3ccccc3)cc12 (stereo not given) ?
Ans: inactive
